Measured quantity: melting point

// solved cases for melting point follow
Molecule: c1ccc(-c2ccc(-n3cccc3)cc2)cc1
Measured value: 190 to 192 °C
//
Molecule: O=C1NC(=O)C2(CCN(Cc3ccccc3)CC2)O1
Measured value: 291 to 294 °C
//
Molecule: O=c1ccn(CC(O)CO)c(Cc2ccccc2)c1O (stereo unspecified)
Measured value: 185 to 186 °C

## Task Please list melting point recorded for the molecule `COc1c2c(c(OC)c(OC)c1OC)CC(CCCCCCCCOC(C)=O)C2`
## Result 47 to 48 °C

## Task Specify reported melting point for the molecule shown: `CC(c1ccc(N2CCCC2)cc1)c1ccc(N2CCCC2)cc1`
## Result 112 °C

## Task Answer with reported melting point of `COc1ccc(-c2cc(=O)n(CCC(=O)NCc3ccccc3)nc2-c2ccc(OC)cc2)cc1`
## Result 135 to 137 °C
